Biological target: T1, 4H2702-bH
T1 chain: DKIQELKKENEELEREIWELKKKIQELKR
Test: two-hybrid library CCNG1;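 also: natural log of median RNA to DNA barcode read ratio; higher means stronger binding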
REPORTED METRIC: interaction score

Solved cases (5 shown):
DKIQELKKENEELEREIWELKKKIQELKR [4H2702-bH] | 1.55
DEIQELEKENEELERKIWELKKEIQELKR [4H170-bH] | 1.84
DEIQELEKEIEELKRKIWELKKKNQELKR [4H112-bH] | 0.179
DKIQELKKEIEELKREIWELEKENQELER [4H2627-bH] | 0.512
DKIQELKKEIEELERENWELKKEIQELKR [4H2586-bH] | 0.0111

Exam item: # get_value(readout='interaction score', item= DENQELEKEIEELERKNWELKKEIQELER [4H1081-bH] )
Marked response: 1.09

Exam item: # get_value(readout='interaction score', item= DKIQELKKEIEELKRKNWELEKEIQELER [4H2673-bH] )
Marked response: -0.671

Exam item: # get_value(readout='interaction score', item= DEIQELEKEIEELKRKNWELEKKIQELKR [4H118-bH] )
Marked response: 0.513

Exam item: # get_value(readout='interaction score', item= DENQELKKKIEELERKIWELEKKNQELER [4H1831-bH] )
Marked response: 0.297

Exam item: # get_value(readout='interaction score', item= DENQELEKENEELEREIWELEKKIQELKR [4H1158-bH] )
Marked response: 0.109
